Data provenance is PubChem BioAssay (NCI).

System: SK-MEL-28 melanoma
Assay: NCI tumour cell line growth inhibition, 48 h
Listed here are molecules together with their documented TGI.

Solved cases below.
1. COc1cc(C2CC(=O)Nc3c2ccc2ccccc32)cc(Br)c1OC (stereo not given) | > 100 µM
2. NCc1c(C(N)=O)ncn1Cc1ccccc1 | > 100 µM

Lab note: measured TGI of CC(=O)OCC12CCC3C4(C)CCCC(C)(C)C4CCC3(C)C1CC(C1=CC(=O)OC1O)O2 (stereo not given) was 3.44 µM

molecule C=Cc1nc(C#N)c(N)o1 , TGI observed: > 100 µM

According to the records, this molecule N#CC[N+]1(Cc2ccccn2)CCCC1 displays TGI of > 100 µM

###

System: NCI-H23 lung
Experiment: NCI tumour cell line growth inhibition, 48 h
Below is a list of entries, each paired with its recorded TGI value.

Quick note, TGI for NCc1c(C(N)=O)ncn1Cc1ccccc1 landed at > 100 µM

Record COc1cc2c(cc1OC)[C@@](C)(C(O)C(O)C(C)(C)O)NCC2 (some centres undefined) , field TGI: > 100 µM

Form field TGI, entry COc1c2ccsc2c(OC)c2ccsc12 : > 100 µM

Entry under test: Nc1nc(=O)n(C2OC(CO)C(O)C2O)c2ncc(-c3ccc(-c4ccccc4)cc3)nc12 (centres undefined) . Its TGI was > 100 µM

The value of TGI measured for the molecule O=C(CNc1ccc2c(=S)c3ccccc3[nH]c2c1)Nc1ccccc1-c1ccccc1NC(=O)CNc1ccc2c(=S)c3ccccc3[nH]c2c1 turned out to be 32.3 µM

Please fill in: TGI reported for CCN(CC)CCn1c2ccc(OC)cc2c2sc3cc(OC)ccc3c(=O)c21 = 4.34 µM

Reported TGI of O=C(O)c1ccccc1N=Nc1ccc2oc(=O)c(C(=O)Nc3ccccc3)cc2c1 : > 100 µM

TGI measured on CC(=O)[O-].[Zn].c1ccc(/C(=N\Nc2ccccn2)c2ccccn2)cc1 = 19.3 µM

molecule C=C(CNC(=O)c1ccccc1)c1ccc(C(=O)Nc2ccccc2N)cc1 , TGI observed: > 100 µM

TGI measured on Cc1cnccc1N=Nc1ccc(N(C)C)cc1 = 68.6 µM

The value of TGI measured for the molecule O=c1oc2c3ccc4cnccc4c3[nH]c2c2ccccc12 turned out to be 80.1 µM

Memo: O=[N+]([O-])c1ccc(O)c(/C=N/c2nc(-c3ccccc3)cs2)c1 , reported TGI: 49.6 µM

Short answer for Nc1cc(S(N)(=O)=O)ccc1SSc1ccc(S(N)(=O)=O)cc1N : TGI was > 100 µM

Note to self: TGI recorded for CCOC(=O)CCC(NC(=O)Cc1ccc(Oc2nc3ccccc3nc2-c2ccccc2)cc1)C(=O)OCC (centres undefined) was > 100 µM

###

System: BT-549 breast
Assay: NCI tumour cell line growth inhibition, 48 h
Quantity Name: TGI

Below: 5 compounds and their reported TGI.
1. COc1cc(F)c(/C=C/c2cc(/C=C/c3cc(OC)c(OC)cc3F)n(-c3cc(F)cc(F)c3)n2)cc1OC | 7.51 µM
2. COc1ccc2[nH]c(C(=O)N3CC(CCl)c4c3cc(N)c3ccccc43)cc2c1 (stereo not given) | < 0.0261 µM
3. O=C1C2=C(SCCS2)C(=O)c2c(Sc3ccc(Cl)cc3)c(Sc3ccc(Cl)cc3)c(Sc3ccc(Cl)cc3)c(Sc3ccc(Cl)cc3)c21 | > 100 µM
4. COC1=C2C=[N+](C)C3C(=C2C=CC1OC)Cc1cc2c(cc13)OCO2 (stereo not given) | 28.1 µM
5. O=[N+]([O-])c1ccc(N2N=C(c3ccc4ccccc4c3O)CC2c2ccc(Cl)cc2)c([N+](=O)[O-])c1 (stereo not given) | > 100 µM

Pending compound:
Please fill in: TGI reported for COc1cc(CCN(C)C)cc(OC)c1OC = > 100 µM
